Cited source for all entries: patent US20240409645A1

Target: T1, human interleukin-2 receptor β-chain (IL-2Rβ; CD122), recombinant protein (human, UniProt P14784 27-240)
T1 construct: also called human IL-2R subunit CD122
T1 sequence: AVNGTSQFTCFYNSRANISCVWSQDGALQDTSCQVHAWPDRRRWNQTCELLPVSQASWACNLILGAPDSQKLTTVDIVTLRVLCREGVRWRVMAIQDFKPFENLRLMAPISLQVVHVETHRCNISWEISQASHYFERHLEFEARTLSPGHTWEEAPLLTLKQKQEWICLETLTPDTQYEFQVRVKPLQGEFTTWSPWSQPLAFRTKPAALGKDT
Test: P.E. binding ELISA
Response field class: enum, chosen by comparing OD450 nm against class A = under 0.5 OD450 nm, class B = from 0.5 OD450 nm up to 0.8 OD450 nm, class C = 0.8 OD450 nm and over

// known answers, use as guide
26-MP06A07 VHH (periplasmic extract) (VHH, soluble VHH in periplasmic extract) VHH: QVQLQESGGGLVQAGGSLRLSCAASGDVFVRYTMAWFRQAPGKEREFVASVTDSGRTTEYVDSVKGRFTVSRDNAKNTAYLQMNNLKPEDTAIYYCAANTDYFQIRSLDLNTWGQGTQVTVSS = class C
24-MP06E05 VHH (periplasmic extract) (VHH, soluble VHH in periplasmic extract) VHH: QVQLVESGGELVQGGASLRLSCAASGRTFSNANMAWFRQAPEKEREFVALITWSSGSTLYADSVKGRFTISRDNARKMVYLQMNSLKPEDTAVYYCAADGPPYSGTYYRYDTYDYWGQGTQVTVSS = class A
19-MP03F08 VHH (periplasmic extract) (VHH, soluble VHH in periplasmic extract) VHH: EVQLVESGGGLVQTGGSLRLSCAASGGTFSRDAMAWFRQVPGKEREFVALISWSGATTNYADSVKGRFAISRDNGKNTVYLQMNRLKPADTAIYYCAADRRPMGSRSYFEPTEYDDWGQGTQVTVSS = class A
15-MP02E06 VHH (periplasmic extract) (VHH, soluble VHH in periplasmic extract) VHH: QVQLVESGGGSVQPGGSLRLSCAASGFTFSNYAMSWVRQAPGKGLEWVASITGFGRGTDYADSVKGRFTISRDNAEDTLYLQMNSLKPEDTAVYYCAKYSSSTYYPPTPARGRDYRGQGTQVTVSS = class B
17-MP02C09 VHH (periplasmic extract) (VHH, soluble VHH in periplasmic extract) VHH: QVQLQESGGGLVQAGGSLRLSCVASGSVSSINGMAWYRQGADNQRVLVAAISRVGNTAYGDSVKGRFTISRQNARNTVYLQMNSLKPEDTAVYYCNADSWGGDDYWGQGTQVTVSS = class C

Which category does the recorded OD450 nm put 23-MP06F03 VHH (periplasmic extract) (VHH, soluble VHH in periplasmic extract) VHH: QVQLVESGGGLVQAGGSLRLSCAVSGDVFVRYTMAWFRQAPGKEREFVASVTDSGRTTDYVHSVKGRFTVSRDNAKNTVYLQMNNLKPEDTAVYYCAANTDYFQIKSLDANTWGQGTQVTVSS in?
class B

Which category does the recorded OD450 nm put 16-MP02B08 VHH (periplasmic extract) (VHH, soluble VHH in periplasmic extract) VHH: EVQLVESGGGLVQAGGSLRLSCAASGRAIENYPVGWFRQAPGKEREFVAAITWISGSTLYADSVKGRFTISRDNAKNTVYLQMSSLKPEDTALYYCAAALKTITRGQNDYSYWGQGTQVTVSS in?
class C

Which category does the recorded OD450 nm put 18-MP03C03 VHH (periplasmic extract) (VHH, soluble VHH in periplasmic extract) VHH: QVQLVESGGGLVQPGGSLRLSCAISGGTLDSYGIGWVRQAPGKQREGVSCMSRSDDRTYYADSVKGRFTISKDSAKNTVYLQMTSLKPEDTAVYYCAAVDAYGCSLVQPTTYDFWGLGTQVTVSS in?
class A
